settings: buffer; pH 7.4; 200.0 µM
observedProperty: solubility kinetic

Known results for compounds:
COc1ccc(CCNC(=O)C2CC(=O)N(c3ccc(C)cc3)C2)cc1 (stereo unspecified); 2.5 µg/mL
O=C(O)c1ccc(CNC(=O)c2ccc3c(c2)OCCO3)cc1; > 47 µg/mL
CC(=O)N[C@@H](Cc1c[nH]c2ccccc12)C(=O)NCc1ccccc1; > 50.3 µg/mL
COc1ccc(CC(=O)Nc2cccnc2)cc1; > 36.3 µg/mL
Cc1cccc(NS(=O)(=O)c2csc(C(N)=O)c2)c1; > 44.5 µg/mL

Field solubility kinetic (entry CC1CCCC(NC(=O)CN2C(=O)COc3ccccc32)C1C (stereo unspecified) ) reads 6.4 µg/mL

* * *

Kindly state solubility kinetic for each of the entries shown.
details: buffer; pH 7.4; 200.0 µM

CC(C)(C)c1ccc(/C=C2/SC(N3CCCC3)=NC2=O)cc1; 15.4 µg/mL
Cc1ccc(S(=O)(=O)N2CC(C)N(S(C)(=O)=O)C2)cc1 (stereo unspecified); > 47.8 µg/mL
Cc1ccc(NS(=O)(=O)c2ccc(NC(=O)c3ccccc3C(=O)O)cc2)c(C)c1; > 63.7 µg/mL
NC(=O)c1cccc(-c2cccc(OC(=O)NC3CCCCC3)c2)c1; < 0.4 µg/mL
CCCC(=O)Nc1nc(-c2ccc(Cl)s2)cs1; 1.5 µg/mL

For every listed record, write down its solubility kinetic.
1. CCOC(=O)CC1C(=O)NCCN1C(=O)c1ccc(Cl)cc1 (stereo unspecified)
2. Cc1[nH]c2ccccc2c1C(=O)C(=O)N(C)C1CCCCC1
3. COc1ccc2oc(=O)c(C(=O)NC(C)c3ccccc3)cc2c1 (stereo unspecified)
4. CC(C)(C)NC(=O)NC(=O)CN1CCCCC1
5. CC(CCc1ccccc1)NC(=O)CCNC(=O)c1ccccc1Cl (stereo unspecified)

Response:
1: > 48.7 µg/mL; 2: > 44.8 µg/mL; 3: < 0.7 µg/mL; 4: > 36.2 µg/mL; 5: 12.3 µg/mL

Field solubility kinetic (entry `CCCN1CCN(S(=O)(=O)c2ccc3c(c2)CCC(=O)N3)CC1` ) reads > 50.6 µg/mL

* * *

Kindly state log10 solubility kinetic for each of the entries shown.
conditions: buffer; pH 7.4; 200.0 µM
# values: log10(solubility kinetic), units µg/mL

For every listed record, write down its log10 solubility kinetic.
1. CC(=O)c1cccc(Nc2nc(-c3cccnc3)cs2)c1
2. Cc1ccc(-c2c[nH]c(=S)n2-c2ccccc2F)cc1
3. O=C(CSc1cccc[n+]1[O-])NC1CCCCCCC1
4. CN(C)/C=C1\SC(=S)N(c2ccc(F)cc2)C1=O

Response:
-0.05
1.05
1.59
1.10

* * *

Kindly state solubility kinetic for each of the entries shown.
conditions: buffer; pH 7.4; 200.0 µM
Give bare numbers, in µg/mL.

CC1CCCN(C(=O)c2ccc(-c3ccccc3Cl)o2)C1 (centres undefined); 10
CCCc1ccc(OCc2ccc(C(=O)N3CCCC3)o2)cc1; 5.9
O=C(COC(=O)c1cccc(N2C(=O)C3CC=CCC3C2=O)c1)c1ccccc1 (centres undefined); 3.2
CC1CN(C(=O)COC(=O)c2cc3ccccc3cc2O)CC(C)O1 (centres undefined); 12.7
CCOC(=O)c1ccccc1NC(=O)Cc1ccc(S(=O)(=O)N2CCCC2)s1; 17.5
O=C1C(Cl)=C(N2CCCCCC2)C(=O)N1c1ccccc1Cl; 25.7
COc1ccccc1CN(C)C(=O)c1cc2ccccc2o1; 28.7
COc1ccc(OC)c2c(=O)cc(C(=O)O)[nH]c12; 14.6

For every listed record, write down its solubility kinetic.
1. CC(=O)Nc1ccc(NC(=O)c2cccc3ccccc23)cc1
2. Cc1cccc(CSc2nc3c(c(-c4cccs4)c2C#N)CN(C)CC3)c1

Response:
[1.7, 5.8]

For every listed record, write down its solubility kinetic.
1. Cc1ccccc1C(=O)Nc1ccc(N2CCCC2)cc1.Cl
2. COc1cccc(/C=C/C(=O)Nc2cccc(C(C)=O)c2)c1OC
3. CC1CC(C)CN(S(=O)(=O)c2ccc(Cl)cc2)C1 (centres undefined)
4. Cc1ccc2c(CN(C)Cc3cccc(F)c3)cc(=O)oc2c1

Response:
7.8
4.3
9.3
2

For every listed record, write down its solubility kinetic.
1. CCNc1nc(SC(C)C(=O)OC)nc(N(C)C)n1 (centres undefined)
2. COCc1nc2oc3ccc(C)cc3c(=O)c2cc1C(=O)OC

Response:
1: 30; 2: 3.9
